assayInfo: binders of probe aFSTL3 on microarray, primary screen, stem cell growth factor project, biochemical, small-molecule microarray, fluorescence 635/667 (AID 1064);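 note: measures binding of the biotinylated anti-FSTL3 antibody to printed compounds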
protocolConditions: higher = more signal
reportedEndpoint: composite z-score
Form rule: numeric answer, no unit written next to it.

Worked set:
| compound | assayResult |
| --- | --- |
| CCOC(=O)[C@H](CC(C)C)NC(=O)CCC1CC(OC(=O)NCc2ccc3c(c2)OCO3)CC2(CCCC(COC(=O)NCC3CCCCC3)O2)O1 (stereo not given in full) | -0.203 |
| COC(=O)[C@@H]1CC[C@H](C)[C@@H](c2ccc(C)cc2)N1C(=O)c1ccc(C=NO[C@@H](C)c2cn([C@H](CO)Cc3ccccc3)nn2)cc1 | -0.612 |
| O=C1C[C@@H](O)[C@@H](O)[C@@H]2[C@@H]3C(=O)N(C[C@@H]4CCCO4)C(=O)[C@@H]3CC[C@H]12 | -0.469 |

Please examine the following record next.
Lab note: measured composite z-score of CC(C)=CCCC(C)=CCON=C1C[C@@H](O)[C@@H](O)[C@@H]2[C@@H]3C(=O)N(C(C)(C)C)C(=O)[C@@H]3CC[C@@H]12 was 0.0454
